# credit: patent US12428394B2

Biological target: JAK3 (Homo sapiens)
Sequence (P52333 whole entry): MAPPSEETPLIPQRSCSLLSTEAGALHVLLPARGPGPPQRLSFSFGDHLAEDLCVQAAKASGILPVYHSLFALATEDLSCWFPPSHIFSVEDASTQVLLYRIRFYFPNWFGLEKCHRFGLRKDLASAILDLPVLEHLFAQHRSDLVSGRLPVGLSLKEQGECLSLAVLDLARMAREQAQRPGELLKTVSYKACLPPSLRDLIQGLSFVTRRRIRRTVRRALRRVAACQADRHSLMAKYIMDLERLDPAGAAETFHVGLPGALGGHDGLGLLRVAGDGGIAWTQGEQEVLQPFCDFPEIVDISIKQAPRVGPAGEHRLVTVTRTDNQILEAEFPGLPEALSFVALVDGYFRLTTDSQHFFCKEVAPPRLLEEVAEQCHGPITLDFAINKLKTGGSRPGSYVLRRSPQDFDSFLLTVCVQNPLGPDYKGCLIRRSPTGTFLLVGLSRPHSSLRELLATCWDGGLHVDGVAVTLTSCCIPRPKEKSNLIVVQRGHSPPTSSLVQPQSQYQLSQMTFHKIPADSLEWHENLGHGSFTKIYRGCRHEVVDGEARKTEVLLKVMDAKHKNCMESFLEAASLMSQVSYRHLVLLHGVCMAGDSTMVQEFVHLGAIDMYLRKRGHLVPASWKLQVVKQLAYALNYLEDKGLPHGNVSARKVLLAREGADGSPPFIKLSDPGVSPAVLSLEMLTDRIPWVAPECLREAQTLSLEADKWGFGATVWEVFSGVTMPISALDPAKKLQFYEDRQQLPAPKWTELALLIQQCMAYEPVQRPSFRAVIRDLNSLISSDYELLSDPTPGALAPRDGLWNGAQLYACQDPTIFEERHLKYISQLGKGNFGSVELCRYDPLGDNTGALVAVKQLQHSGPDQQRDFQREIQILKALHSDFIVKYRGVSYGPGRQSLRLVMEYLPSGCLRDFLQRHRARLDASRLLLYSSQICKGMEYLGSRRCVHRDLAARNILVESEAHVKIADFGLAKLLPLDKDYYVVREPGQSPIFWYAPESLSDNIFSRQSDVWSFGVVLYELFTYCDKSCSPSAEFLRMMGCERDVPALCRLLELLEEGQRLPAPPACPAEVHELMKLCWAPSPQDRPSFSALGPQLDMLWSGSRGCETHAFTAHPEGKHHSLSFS
READOUT: pIC50
Recall that pIC50 is obtained by taking minus log10 of the concentration measured in molar.

Form: item "Cc1cnc(Nc2ccc(N3CCC(N(C)CCO)CC3)c(F)c2)nc1-c1cnn(C(C)C)c1" ; test system JAK3 (Homo sapiens); pIC50: 7.34

###

List of IC50 values.
Target: UniProt P23458
Sequence (P23458 whole entry): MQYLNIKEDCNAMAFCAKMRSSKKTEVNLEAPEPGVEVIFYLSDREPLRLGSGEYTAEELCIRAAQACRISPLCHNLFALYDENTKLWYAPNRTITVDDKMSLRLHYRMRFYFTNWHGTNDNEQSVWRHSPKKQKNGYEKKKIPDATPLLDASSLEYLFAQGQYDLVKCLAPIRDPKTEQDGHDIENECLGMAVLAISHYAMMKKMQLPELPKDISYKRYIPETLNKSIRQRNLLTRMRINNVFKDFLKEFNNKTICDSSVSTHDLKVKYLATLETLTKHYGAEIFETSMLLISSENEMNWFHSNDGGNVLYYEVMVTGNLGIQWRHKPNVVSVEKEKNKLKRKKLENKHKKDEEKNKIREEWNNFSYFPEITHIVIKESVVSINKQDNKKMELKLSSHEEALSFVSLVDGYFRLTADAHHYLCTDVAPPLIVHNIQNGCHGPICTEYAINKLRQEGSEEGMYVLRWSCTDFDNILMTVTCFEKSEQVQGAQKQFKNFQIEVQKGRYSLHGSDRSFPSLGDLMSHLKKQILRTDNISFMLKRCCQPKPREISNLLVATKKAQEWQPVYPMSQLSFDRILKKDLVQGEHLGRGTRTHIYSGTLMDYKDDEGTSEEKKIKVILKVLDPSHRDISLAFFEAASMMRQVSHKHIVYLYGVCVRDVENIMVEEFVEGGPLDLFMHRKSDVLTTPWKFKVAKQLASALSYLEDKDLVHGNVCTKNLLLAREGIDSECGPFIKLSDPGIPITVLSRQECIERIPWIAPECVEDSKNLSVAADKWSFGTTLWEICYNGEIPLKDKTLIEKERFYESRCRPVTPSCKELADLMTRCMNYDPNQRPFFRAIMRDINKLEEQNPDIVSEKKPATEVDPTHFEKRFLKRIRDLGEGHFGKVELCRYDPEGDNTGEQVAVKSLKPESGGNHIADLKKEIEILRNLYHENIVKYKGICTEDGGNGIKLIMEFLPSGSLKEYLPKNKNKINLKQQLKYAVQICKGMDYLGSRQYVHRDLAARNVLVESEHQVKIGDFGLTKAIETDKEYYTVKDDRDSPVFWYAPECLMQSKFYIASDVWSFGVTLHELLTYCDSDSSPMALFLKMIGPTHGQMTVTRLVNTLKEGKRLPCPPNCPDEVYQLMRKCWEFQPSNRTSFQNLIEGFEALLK
Return type: number; implicit unit nM.

For orientation, consider the following solved cases.
- SMILES REPR: "Cc1cnc(Nc2ccc(N3CCC(N(C)CCO)CC3)c(F)c2)nc1-c1cn(C(C)C)nc1S(C)(=O)=O"
  TARGET OR SYSTEM: "UniProt P23458"
  UNITS LABEL: "nM"
  OBSERVED: 121
- SMILES REPR: "Cc1cnc(Nc2ccc(N3CCC(N(C)CCO)CC3)c(F)c2)nc1-c1cnn(C(C)C)c1"
  TARGET OR SYSTEM: "UniProt P23458"
  UNITS LABEL: "nM"
  OBSERVED: 37

Could you now consider this next molecule?
IC50 for "Cc1cnc(Nc2ccc(N3CCC(N(C)C)CC3)c(F)c2)nc1-c1cnn(C(C)C)c1" is 58

###

Biological target: JAK2 (Homo sapiens, UniProt O60674)
Construct: purchased Eurofins
Sequence (O60674 whole entry): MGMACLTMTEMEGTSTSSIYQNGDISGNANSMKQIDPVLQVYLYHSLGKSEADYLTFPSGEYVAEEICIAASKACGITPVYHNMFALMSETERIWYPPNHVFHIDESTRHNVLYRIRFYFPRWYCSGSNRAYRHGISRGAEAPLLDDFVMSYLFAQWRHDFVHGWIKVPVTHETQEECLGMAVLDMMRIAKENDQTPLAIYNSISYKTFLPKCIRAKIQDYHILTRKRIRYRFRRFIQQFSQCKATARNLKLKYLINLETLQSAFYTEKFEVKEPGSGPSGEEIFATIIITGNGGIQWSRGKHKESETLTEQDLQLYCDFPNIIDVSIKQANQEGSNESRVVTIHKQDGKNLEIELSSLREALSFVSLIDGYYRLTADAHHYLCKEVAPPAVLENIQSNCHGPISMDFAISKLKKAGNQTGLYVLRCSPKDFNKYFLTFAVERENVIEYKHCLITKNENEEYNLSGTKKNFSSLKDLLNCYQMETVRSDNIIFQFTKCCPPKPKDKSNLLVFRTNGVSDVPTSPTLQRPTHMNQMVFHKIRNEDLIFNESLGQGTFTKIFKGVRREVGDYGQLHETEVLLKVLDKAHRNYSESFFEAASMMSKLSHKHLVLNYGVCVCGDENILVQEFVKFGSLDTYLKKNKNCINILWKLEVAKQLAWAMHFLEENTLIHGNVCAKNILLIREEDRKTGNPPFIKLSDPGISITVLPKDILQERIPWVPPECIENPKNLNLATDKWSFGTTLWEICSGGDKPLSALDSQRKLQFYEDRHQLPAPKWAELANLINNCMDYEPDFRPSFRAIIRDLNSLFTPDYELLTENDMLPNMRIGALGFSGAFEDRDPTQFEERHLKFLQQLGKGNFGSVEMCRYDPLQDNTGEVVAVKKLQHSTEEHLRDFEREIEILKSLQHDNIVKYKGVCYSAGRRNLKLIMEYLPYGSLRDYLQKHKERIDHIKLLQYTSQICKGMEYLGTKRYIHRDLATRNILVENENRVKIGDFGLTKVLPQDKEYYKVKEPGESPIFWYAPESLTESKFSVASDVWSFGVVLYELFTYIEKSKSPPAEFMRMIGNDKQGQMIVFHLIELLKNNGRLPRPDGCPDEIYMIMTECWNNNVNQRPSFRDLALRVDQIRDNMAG
Test: In vitro kinase activity experiment, JAK2
Format: biochemical
Conditions: inhibition rate of enzyme at 500 nM; measured by Eurofins
Class assignment keyed on Kinase activity @ 500 nM (%) JAK2, ranges low band: < 50%; middle band: ≥ 50% and < 90%; high band: ≥ 90%

Field: example entries. Status: answers known.
- SMILES REPR: "Cc1cnc(Nc2ccc(N3CCC4(CC3)CN(C3CCCC3)C4)c(F)c2)nc1-c1cnn(C(C)C)c1"
  CAT: "middle band"
- SMILES REPR: "Cc1cnc(Nc2ccc(N3CCC4(CC3)CN(CCO)C4)c(F)c2)nc1-c1cnn(C(C)C)c1"
  CAT: "high band"
- SMILES REPR: "Cc1cnc(Nc2ccc(CNC(=O)/C=C/C(=O)c3ccccc3)cc2)nc1-c1cnn(C(C)C)c1"
  CAT: "low band"
- SMILES REPR: "Cc1cnc(Nc2ccc(S(=O)(=O)NC3CC3)cc2)nc1-c1cnn(C(C)C)c1"
  CAT: "high band"
- SMILES REPR: "Cc1cnc(Nc2ccc(N3CCC4(CC3)CN(C(C)C)C4)c(F)c2)nc1-c1cnn(C(C)C)c1"
  CAT: "high band"

Pending molecule:
Which class does "Cc1cnc(Nc2ccc(NC(=O)[C@H]3CCCN3CC3CC3)c(F)c2)nc1-c1cnn(C(C)C)c1" fall in?
middle band

###

Target: FLT3 (Homo sapiens)
Construct: purchased Eurofins
Sequence (P36888 27-993): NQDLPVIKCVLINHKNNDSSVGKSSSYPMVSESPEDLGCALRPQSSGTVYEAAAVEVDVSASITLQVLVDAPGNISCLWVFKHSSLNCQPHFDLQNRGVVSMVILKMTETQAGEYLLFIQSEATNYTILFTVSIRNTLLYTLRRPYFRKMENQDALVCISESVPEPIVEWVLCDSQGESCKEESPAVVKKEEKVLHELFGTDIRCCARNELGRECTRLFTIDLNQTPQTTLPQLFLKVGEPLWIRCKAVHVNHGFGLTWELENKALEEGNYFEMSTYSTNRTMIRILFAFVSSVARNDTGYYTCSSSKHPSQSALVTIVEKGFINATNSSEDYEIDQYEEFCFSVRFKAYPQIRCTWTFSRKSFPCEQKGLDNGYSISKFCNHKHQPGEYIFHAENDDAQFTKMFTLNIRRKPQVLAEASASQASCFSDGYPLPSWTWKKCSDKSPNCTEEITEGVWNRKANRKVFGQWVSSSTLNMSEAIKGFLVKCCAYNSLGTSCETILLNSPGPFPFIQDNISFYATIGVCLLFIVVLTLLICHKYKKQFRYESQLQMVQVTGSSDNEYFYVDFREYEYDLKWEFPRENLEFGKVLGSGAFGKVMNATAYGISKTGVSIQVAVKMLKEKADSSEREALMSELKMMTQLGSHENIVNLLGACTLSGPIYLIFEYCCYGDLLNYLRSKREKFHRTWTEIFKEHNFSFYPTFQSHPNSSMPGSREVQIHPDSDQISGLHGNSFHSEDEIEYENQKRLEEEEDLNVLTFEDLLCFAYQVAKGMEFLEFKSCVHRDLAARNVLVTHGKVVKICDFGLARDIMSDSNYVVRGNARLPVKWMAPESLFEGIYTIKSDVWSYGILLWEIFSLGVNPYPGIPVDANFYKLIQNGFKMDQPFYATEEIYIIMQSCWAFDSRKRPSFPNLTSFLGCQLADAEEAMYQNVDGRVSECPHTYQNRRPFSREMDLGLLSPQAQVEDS
Assay: In vitro kinase activity experiment, FLT3
Type: biochemical
Settings: 40 min; inhibition rate of enzyme at 500 nM; measured by Eurofins; read-out: Kinase activity @ 500 nM (%) FLT3
List of inhibition at 0.5 µM values.
Return type: number; implicit unit %.

For orientation, consider the following solved cases.
- SMILES REPR: "CCCn1cc(-c2nc(Nc3ccc(N4CCN(C)CC4)cc3F)ncc2F)cn1"
  inhibition at 0.5 µM, %: 34
- SMILES REPR: "Cc1cnc(Nc2ccc(CCNC(=O)CCCl)cc2)nc1-c1cnn(C(C)C)c1"
  inhibition at 0.5 µM, %: 32

inhibition at 0.5 µM for "CC(C)n1cc(-c2nc(Nc3ccc(N4CCN(C5CCN(C)CC5)CC4)cc3)ncc2F)cn1" is 18

inhibition at 0.5 µM for "CCCCCCN1CC2(CCN(c3ccc(Nc4ncc(C)c(-c5cnn(C(C)C)c5)n4)cc3F)CC2)C1" is 97

inhibition at 0.5 µM for "CCCN1CCC(n2cc(-c3nc(Nc4ccc(N5CCN(C)CC5)cc4)ncc3F)cn2)CC1" is 94

inhibition at 0.5 µM for "Cc1cnc(Nc2ccc(CCNC(=O)/C=C/CN(C)C)cc2)nc1-c1cnn(C(C)C)c1" is 23

inhibition at 0.5 µM for "CCCCN1CCC(n2cc(-c3nc(Nc4ccc(N5CCN(C)CC5)c(F)c4)ncc3F)cn2)CC1" is 95

inhibition at 0.5 µM for "CCCn1cc(-c2nc(Nc3ccc(N4CCN(C)CC4)c(F)c3)ncc2F)cn1" is 28

###

List of IC50 values.
System: SET-2 cells (JAK2 V617F)
Assay: Inhibition of cell proliferation by MTT experiment, SET-2
Format: cell-based
Conditions: Homo sapiens, SET-2; MTT, 72 h; read-out: IC50 value on cell proliferation inhibition, SET-2 (V617F)

For orientation, consider the following solved cases.
- MOLECULE: "Cc1c(-c2nc(Nc3ccc(N4CCN(C)CC4)c(F)c3)ncc2F)cnn1C(C)C [CLJ-35]"
  IC50: "0.1 to 1 µM"
- MOLECULE: "Cc1cnc(Nc2ccc(N3CCC(CN(C)CCN4CCOCC4)CC3)c(F)c2)nc1-c1cnn(C(C)C)c1 [CLJ-61]"
  IC50: "0.1 to 1 µM"
- MOLECULE: "Cc1cnc(Nc2ccc(N3CCC(N(C)CCCO)CC3)c(F)c2)nc1-c1cnn(C(C)C)c1 [CLJ-45]"
  IC50: "0.1 to 1 µM"
- MOLECULE: "CCN1CCN(c2ccc(Nc3ncc(F)c(-c4cnn(C(C)C)c4)n3)cc2F)CC1 [CLJ-26]"
  IC50: "> 1 µM"
- MOLECULE: "C=CC(=O)CCN1CC2(CCN(c3ccc(Nc4ncc(C)c(-c5cnn(C(C)C)c5)n4)cc3F)CC2)C1 [CLJ-77]"
  IC50: "0.1 to 1 µM"
- MOLECULE: "Cc1cnc(Nc2ccc(CNC(=O)/C=C/C(=O)c3ccccc3)cc2)nc1-c1cnn(C(C)C)c1 [CLJ-81]"
  IC50: "> 1 µM"

IC50 for Cc1cnc(Nc2ccc(N3CCC(N(C)C(=O)CO)CC3)c(F)c2)nc1-c1cnn(C(C)C)c1 [CLJ-41] is 0.1 to 1 µM

IC50 for Cc1cnc(Nc2ccc(N3CCC(N(C)CCN4CCN(C(C)C)CC4)CC3)c(F)c2)nc1-c1cnn(C(C)C)c1 [CLJ-58] is 0.1 to 1 µM

IC50 for Cc1cnc(Nc2ccc(N3CCC(NCCO)CC3)c(F)c2)nc1-c1cnn(C(C)C)c1 [CLJ-43] is 0.1 to 1 µM

IC50 for COc1cc(Nc2ncc(C)c(-c3cnn(C(C)C)c3)n2)ccc1N1CCC(N(C)C)CC1 [CLJ-39] is 0.1 to 1 µM

###

Target: FLT3 (Homo sapiens, UniProt P36888)
Construct: purchased Eurofins
Assay: In vitro kinase activity experiment, FLT3
Assay type: biochemical
Details: 40 min; inhibition rate of enzyme at 500 nM; measured by Eurofins; read-out: Kinase activity @ 500 nM (%) FLT3
READOUT: inhibition at 0.5 µM (%)
Return type: number; implicit unit %.

inhibition at 0.5 µM for "Cc1cnc(Nc2ccc(S(=O)(=O)NC3CC3)cc2)nc1-c1cnn(C(C)C)c1" is 97

inhibition at 0.5 µM for "Cc1cnc(Nc2ccc(N3CCC(N(C)CCCCCO)CC3)c(F)c2)nc1-c1cnn(C(C)C)c1" is 94

inhibition at 0.5 µM for "Cc1cnc(Nc2ccc(CNC(=O)CCCN(C)C)cc2)nc1-c1cnn(C(C)C)c1" is 89

inhibition at 0.5 µM for "CCCCn1cc(-c2nc(Nc3ccc(N4CCN(C)CC4)c(F)c3)ncc2F)cn1" is 25

inhibition at 0.5 µM for "CCCn1cc(-c2nc(Nc3ccc(N4CCN(CC)CC4)c(F)c3)ncc2F)cn1" is 20

inhibition at 0.5 µM for "Cc1cnc(Nc2ccc(N3CCC(CN(C)CCN4CCOCC4)CC3)c(F)c2)nc1-c1cnn(C(C)C)c1" is 98

inhibition at 0.5 µM for "COc1cc(Nc2ncc(F)c(-c3cnn(C(C)C)c3)n2)ccc1N1CCC(N(C)C)CC1" is 97

inhibition at 0.5 µM for "CCN1CCN(c2ccc(Nc3ncc(F)c(-c4cnn(C(C)C)c4)n3)cc2F)CC1" is 30
